Origin of values: paper PMC11211441

protocol-notes: Human microsomal stability assay
run-parameters: human, microsomes, pH 7.4, %Remaining, human liver microsomes, 5 min
parameter: remaining at 5 min, 3 µM

> print(dat)
                                   molecule  measured.value
1  OC[C@H]1O[C@H](O[C@H]2O[C@H](CO)[C@@H](O)[C@H](O)[C@H]2F)[C@H](O)[C@@H](O)[C@@H]1O [FDT]           74.5%

---

protocol-notes: Human microsomal stability assay
run-parameters: human, microsomes, pH 7.4, %Remaining, human liver microsomes, 20 min
parameter: remaining at 20 min, 3 µM (%)

> print(dat)
                                   molecule  measured.value
1  OC[C@H]1O[C@H](O[C@H]2O[C@H](CO)[C@@H](O)[C@H](O)[C@H]2F)[C@H](O)[C@@H](O)[C@@H]1O [FDT]            55.3

---

protocol-notes: Human microsomal stability assay
run-parameters: human, microsomes, pH 7.4, %Remaining, human liver microsomes, 0 min
parameter: remaining at 0 h, 3 µM (%)

> print(dat)
                            chemical.smiles               parameter  unit.name  measured.value
1  OC[C@H]1O[C@H](O[C@H]2O[C@H](CO)[C@@H](O)[C@H](O)[C@H]2F)[C@H](O)[C@@H](O)[C@@H]1O  remaining at 0 h, 3 µM          %             100

---

Tested on: mammalian (porcine) trehalase
protocol-notes: Trehalase degradation assay
Format: in vitro ADME
run-parameters: 0.3 units/mL trehalase, 10 mM substrate, pH 5.7, 37 °C, 60 minutes
parameter: degradation by trehalase (Figure S5, released glucose)

> print(dat)
                                   molecule  measured.value
1  OC[C@H]1O[C@H](O[C@H]2O[C@H](CF)[C@@H](O)[C@H](O)[C@H]2O)[C@H](O)[C@@H](O)[C@@H]1O [6-[^19F]FDT]              14
2  OC[C@H]1O[C@H](O[C@H]2O[C@H](CO)[C@@H](O)[C@H](O)[C@H]2O)[C@H](O)[C@@H](O)[C@@H]1O [trehalose, reference compound]             100
3  OC[C@H]1O[C@H](O[C@H]2O[C@H](CO)[C@@H](O)[C@H](O)[C@H]2F)[C@H](O)[C@@H](O)[C@@H]1O [[^19F]FDT]               0
4  OC[C@H]1O[C@H](O[C@H]2O[C@H](CO)[C@@H](F)[C@H](O)[C@H]2O)[C@H](O)[C@@H](O)[C@@H]1O [4-epi-[^19F]FDT]               0

---

protocol-notes: [19F]FDT clearance and in vivo stability in marmosets (plasma LC-MS, 19F NMR)
Design: species or system common marmosets
run-parameters: common marmoset, plasma, iv, 20 mg, marmosets M1-M3 (duplicate measurements), 20 mg IV, 5 min post injection
Protocol: In order to determine [^19F]FDT metabolism in vivo, we assessed concentration vs time in two mammalian species: common marmosets and C57BL/6 mice. […] A, B) 20 mg [19F]FDT was injected into marmosets (A, n=3 biological replicates, each measured in duplicate) and 5 mg FDT injected into mice (B, n=5 biological replicates, each measured in triplicate). […] [19F]FDG was detected, consistent with the only low levels of metabolism seen with [18F]FDT in rabbits (see Figure S3G). […]
parameter: concentration at 5 min (µM)

> print(dat)
                            chemical.smiles  measured.value
1  OC[C@H]1O[C@H](O[C@H]2O[C@H](CO)[C@@H](O)[C@H](O)[C@H]2F)[C@H](O)[C@@H](O)[C@@H]1O             551

---

System: mammalian (porcine) trehalase
protocol-notes: Trehalase degradation assay
Format: in vitro ADME
run-parameters: 0.3 units/mL trehalase, 10 mM substrate
parameter: degradation by trehalase

> print(dat)
                                   molecule                      tested.on            measured.value
1  OC[C@H]1O[C@H](O[C@H]2O[C@H](CO)[C@@H](O)[C@H](O)[C@H]2F)[C@H](O)[C@@H](O)[C@@H]1O [[^19F]FDT]  mammalian (porcine) trehalase  little or no degradation
2  OC[C@H]1O[C@H](O[C@H]2O[C@H](CO)[C@@H](F)[C@H](O)[C@H]2O)[C@H](O)[C@@H](O)[C@@H]1O [4-epi-[^19F]FDT]  mammalian (porcine) trehalase  little or no degradation
3  OC[C@H]1O[C@H](O[C@H]2O[C@H](CF)[C@@H](O)[C@H](O)[C@H]2O)[C@H](O)[C@@H](O)[C@@H]1O [6-[^19F]FDT]  mammalian (porcine) trehalase                       14%

---

protocol-notes: Human microsomal stability assay
run-parameters: human, microsomes, pH 7.4, %Remaining, human liver microsomes, 40 min
parameter: remaining at 40 min, 3 µM

> print(dat)
                            chemical.smiles  measured.value
1  OC[C@H]1O[C@H](O[C@H]2O[C@H](CO)[C@@H](O)[C@H](O)[C@H]2F)[C@H](O)[C@@H](O)[C@@H]1O           56.6%

---

protocol-notes: Human microsomal stability assay
run-parameters: human, microsomes, pH 7.4, %Remaining, human liver microsomes, 10 min
parameter: remaining at 10 min, 3 µM (%)

> print(dat)
                            chemical.smiles  measured.value
1  OC[C@H]1O[C@H](O[C@H]2O[C@H](CO)[C@@H](O)[C@H](O)[C@H]2F)[C@H](O)[C@@H](O)[C@@H]1O            58.5
